Assay summary: H69AR viability gain despite doxorubicin, primary screen, MRP-1 activator project, H69AR cells, CellTiter-Glo (AID 799);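 further: MRP-1 overexpressing cells given doxorubicin 25 µM after compound pretreatment; 18-22 h compound pretreatment then 72 h with doxorubicin before readout; 0% = doxorubicin-only wells and 100% = vehicle-treated cells without doxorubicin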
Particulars: viability rescue, at 10 µM, hits give high values
In all, about 140,000 compounds went through this assay and about 840 (0.6%) were called active. What follows is part of a selection rich in actives, with near analogues and random picks from the rest.
Observation type: viability increase (%)
Numbers only, in %.

# Entry smiles, Unit of measure, Observed
rows = [
    ("CCn1c2ccccc2c2cc(NC(=O)COC(=O)c3ccccc3Br)ccc21", "%", -1.59),
    ("Cc1cc(C(=O)OCC(=O)Nc2ccc(F)c(F)c2)c(C)o1", "%", 7.91),
]

Lab note: next molecule to report on.
query: Which viability increase is listed for `Cn1nnc(NC(=O)CSc2ncn[nH]2)n1` ?
result: -0.73
